tested on: MS2 coat protein; experiment: apparent KD of MS2 coat protein; designed switch direction (-1 OFF switch, 1 ON switch): -1; higher = weaker reporter binding; details: input ligand: none
parameter: apparent KD of MS2 coat protein (nM)
A number alone suffices; assume nM.

- GAACCAUGAGGAUAUUCUGAUCCUAACAUGAGGAUCACCCAUGUGAGUACAAAAGUACUCGAAGAAGGCAUGGUUC [Omei Ex5 B2] (Eterna round: R97, puzzle: Exclusion 5): 428
- CGUUUGCAUUUUGCUCGUCACAUGAGGAUCACCCAUGUUAUGCUACAGUACGCUAGGAUCGGCGUCUGAGGGCUUUA [Eternabot (Original) Solution 1] (Eterna round: R97, puzzle: Sensor, turn-off variant 1): 27.7
- UUCGUGCAGCUUUGCUGUACGCGUACAUGAGGAUCACCCAUGUAGGAUAUGGUACGCAAAGCGUGCUAGAAGGAUAUGGAGAGG [Mat - Exclusion NG 3 - Mod of JL - D81] (Eterna round: R96, puzzle: Exclusion NG 3): 13.1
- UUCCUCGUUGUGAGGAUAUCGUCCGUGUUUUGUUACGAGAAGGCACAUGAGGAUCACCCAUGUUACUUGAUGUU [JR_BMOE4_Sub073] (Eterna round: R96, puzzle: Brourd's mod of Exclusion 4): 23.3
- GCCUCACAUGAGGAUCACCCAUGUCAGGAUAUACCCAUCCAGCGAAAUUAAAGCUGUAGUAGAAGGGACAUGCA [Bevebeis] (Eterna round: R97, puzzle: Exclusion 1): 18.4
- GGUCAGAUGGUAGGAUAUCCAUAUCGAGUGACCCUUUCAUAACAUGAGGAUCACCCAUGUCGGUGGGAGAAGGGCCGUAUGGCG [salish99_ExNG02_R04_022] (Eterna round: R96, puzzle: Exclusion NG 2): 51.3
- UUUAUCCGAGGAUAUACAGAAUGAAUGUGAAAUGAAUGAUGACAUGAGGAUCACCCAUGUAGAAGGCGGAUAUA [Default title] (Eterna round: R97, puzzle: Exclusion 2): 57.8
- GCCUACCAGCUAGGAUAUGCAGUACAGUAAAAUGUAGAAGGAGCACGAUCCAGACAUGAGGAUCACCCAUGUGGGCGGCAGGCA [Raartive] (Eterna round: R96, puzzle: Exclusion NG 1): 22.8
- AGCGGUGUUCAGGAUAUCUGGUUAUGACACAUGAGAGAAGGGAGCACAUGAGGAUCACCCAUGUGACCUUCGCG [Eternabot (Original) Solution 23] (Eterna round: R97, puzzle: Exclusion 6): 15.5
- CCUGCGGACAAAGGAUAUUGCGGUGGCCGGCUCGGCGUACCGAGCCUACAUGAGGAUCACCCAUGUAAGAAGGUUGUCGUUGGA [Mat - Exclusion NG 2 - Mod of JL - D71] (Eterna round: R96, puzzle: Exclusion NG 2): 40.1

Problem: What apparent KD of MS2 coat protein appears in the records for this sequence with MS2 coat protein? GGUGGGCUAGGAUAUGCUUUGGGCGGGCAUUCCUUCGAUAAACUUGAGGAUCACCCAAGUAGAAGGAGCUUGCC [salish99_ex2_r4_024] (Eterna round: R97, puzzle: Exclusion 2)
Solution: 12.3

Problem: Param item: AGCGAAAAGGCAGGAUAUGAGAAUAGAUAGAGCUCAGAAGGGCCACAUGAGGAUCACCCAUGUAAAGUCUUGAGGCUGCGUGGU [Prohibition 12 - Jieux - Exclusion NG 1] (Eterna round: R96, puzzle: Exclusion NG 1)
Solution: 60.4

Problem: Param item: UUGACUGGCGAGGAUAUCUCGCAAUAGUUAGGGAGAGAAGGUGCUACAUGAGGAUCACCCAUGUCAAACGAACC [Eternabot (L1) Solution 58] (Eterna round: R97, puzzle: Exclusion 6)
Solution: 21.9
